These data points were gathered from patent US20240182536A1.

Assign Kd to each entry below.
Target: T1, human IL-18 receptor alpha (IL-18Rα) (human, UniProt Q13478 19-329, limits assumed)
T1 construct: also called hu IL-18Ra; IL-18R alpha
T1 sequence (looked up): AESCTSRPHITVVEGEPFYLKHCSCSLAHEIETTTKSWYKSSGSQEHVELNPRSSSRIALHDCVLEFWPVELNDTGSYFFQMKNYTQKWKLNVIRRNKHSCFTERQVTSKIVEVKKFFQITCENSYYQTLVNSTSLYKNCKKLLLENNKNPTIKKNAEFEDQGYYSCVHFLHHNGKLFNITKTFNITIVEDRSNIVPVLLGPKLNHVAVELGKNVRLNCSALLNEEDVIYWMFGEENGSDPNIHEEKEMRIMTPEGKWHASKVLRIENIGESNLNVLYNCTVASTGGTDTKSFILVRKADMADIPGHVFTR
Experiment: Octet BLI
Numbers only, in nM.

These recorded examples may help you get a feel for the data.
Binder: IL-18 variant G3V, M60K (ligand) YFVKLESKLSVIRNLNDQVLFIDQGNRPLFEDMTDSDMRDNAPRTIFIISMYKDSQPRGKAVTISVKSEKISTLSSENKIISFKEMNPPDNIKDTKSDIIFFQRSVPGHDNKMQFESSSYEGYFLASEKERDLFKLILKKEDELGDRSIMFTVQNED
Result unit: nM
Kd: 41
--
Binder: IL-18 variant G3E, K53S (ligand) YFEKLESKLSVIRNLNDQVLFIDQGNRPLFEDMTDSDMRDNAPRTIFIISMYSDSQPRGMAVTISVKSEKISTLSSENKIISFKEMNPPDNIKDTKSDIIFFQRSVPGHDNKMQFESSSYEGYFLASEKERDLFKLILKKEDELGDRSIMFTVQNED
Result unit: nM
Kd: 8920
--
Binder: IL-18 variant G3T, M60K, D157E (ligand) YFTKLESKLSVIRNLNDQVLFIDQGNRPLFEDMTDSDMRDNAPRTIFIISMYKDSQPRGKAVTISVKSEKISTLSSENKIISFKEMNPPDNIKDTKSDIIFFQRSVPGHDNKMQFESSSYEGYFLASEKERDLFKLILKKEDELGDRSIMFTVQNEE
Result unit: nM
Kd: 693

Now look at this one.
Query: Quick one: Kd for IL-18 variant G3R, K53S (ligand) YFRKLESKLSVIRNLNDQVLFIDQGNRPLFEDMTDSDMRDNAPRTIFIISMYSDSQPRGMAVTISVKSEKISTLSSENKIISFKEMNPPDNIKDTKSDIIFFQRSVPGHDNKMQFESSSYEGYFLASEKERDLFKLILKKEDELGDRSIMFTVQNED ?
Result: 197
